target: BRD4 (BD1+BD2) bromodomain (Homo sapiens (Human)); experiment: BRD4 binding inhibition (AlphaScreen, GST-BRD4 vs tetraacetylated histone H4 peptide); details: GST-BRD4 (BD1+BD2) vs biotinylated acetyl-histone H4 peptide, AlphaScreen; read-out: BRD4 IC50
Binary call on IC50 with cut-off 20 nM: strictly below means Criterion met, and equality or higher means Criterion not met.

compound=Cc1nnc2c(NCCCCNC(=O)[C@H](O)C(C)C)nc3ccccc3n12 target_of_assay="BRD4 (BD1+BD2) bromodomain (Homo sapiens (Human))" group_label="Criterion not met"
compound=Cc1nnc2c(NCCCCNC(=O)OC(C)(C)C)nc3cc(-c4nc5ccccc5[nH]4)ccc3n12 target_of_assay="BRD4 (BD1+BD2) bromodomain (Homo sapiens (Human))" group_label="Criterion not met"
compound=COc1ccc2c(c1)nc(NCCCCC(=O)NCc1ccco1)c1nnc(C)n12 target_of_assay="BRD4 (BD1+BD2) bromodomain (Homo sapiens (Human))" group_label="Criterion met"

Would you kindly look at the next entry?
**Q:** Please determine if COc1ccc2c(c1)nc(NCCCCNC(=O)[C@H](C(C)C)N1CCC(O)C1)c1nnc(C)n12 (some centres unmarked) is below 20 nM in terms of IC50.
**A:** Criterion not met

###

biological target: BRD4 (BD1+BD2) bromodomain (Homo sapiens (Human), UniProt O60885); assay: BRD4 binding inhibition (AlphaScreen, GST-BRD4 vs tetraacetylated histone H4 peptide); settings: GST-BRD4 (BD1+BD2) / biotinylated acetyl-histone H4 (Lys5,8,12,16) peptide; read-out: IC50, BRD4 binding inhibition
pIC50: −log10 of the molar value.
pIC50 for assorted compounds

# annotated cases, reported pIC50 shown
test_smiles=Cc1nnc2c(NCCCCNC(=O)CC(C)C)nc3cc(N)ccc3n12 observed="≥ 7.30"
test_smiles=COCCOc1ccc2c(c1)nc(NCCCCNC(=O)OCC(C)C)c1nnc(C)n12 observed="≥ 7.30"
test_smiles=COc1ccc2nc(NCCCCNC(=O)c3ccccc3Cl)c3nnc(C)n3c2c1 observed="≥ 7.30"
test_smiles=COCCOc1ccc2c(c1)nc(NCCCCNC(=O)Cc1cccs1)c1nnc(C)n12 observed="≥ 7.30"

**Q:** Request body: readout pIC50, system BRD4 (BD1+BD2) bromodomain (Homo sapiens (Human), UniProt O60885), query COCCOc1ccc2c(c1)nc(NCCCCNC(=O)[C@@H](NC(=O)OCC(C)C)C(C)C)c1nnc(C)n12 . Return the value.
**A:** ≥ 8.00

**Q:** Request body: readout pIC50, system BRD4 (BD1+BD2) bromodomain (Homo sapiens (Human), UniProt O60885), query Cc1nnc2c(NCCCCNC(=O)NC3CCCCC3)nc3cc(-c4nc5ccccc5n4C)ccc3n12 . Return the value.
**A:** ≥ 7.30

**Q:** Request body: readout pIC50, system BRD4 (BD1+BD2) bromodomain (Homo sapiens (Human), UniProt O60885), query COc1ccc2c(c1)nc(NCCCCNC(=O)C(C)C)c1nnc(C)n12 . Return the value.
**A:** ≥ 8.00

**Q:** Request body: readout pIC50, system BRD4 (BD1+BD2) bromodomain (Homo sapiens (Human), UniProt O60885), query Cc1nnc2c(NCCCCNC(=O)OC(C)C)nc3cc(-n4ccnc4)ccc3n12 . Return the value.
**A:** ≥ 7.30
